Test system: NCI-H226
Test: NCI tumour cell line growth inhibition, 48 h
Active and inactive are the calls of the source. No stated cut-off is given here; in the data, active = GI50 up to about 1.1 µM and inactive = higher.
Your reply should match one of these outcome classes. active, inactive

compound=O=c1c(C(c2ccc3c(c2)Cc2ccccc2-3)c2c(O)oc3ccccc3c2=O)c(O)oc2ccccc12 answer_label=inactive
compound="CC[N+]1(C)CCC(O)(c2ccc(Cl)c(Cl)c2)C(C(=O)c2ccc(Cl)c(Cl)c2)C1 (centres undefined)" answer_label=inactive
compound=Cc1ccc(S(=O)(=O)Oc2nc3ccccc3nc2N(S(=O)(=O)c2ccc(C)cc2)S(=O)(=O)c2ccc(C)cc2)cc1 answer_label=inactive
compound="CC(CCC[C@H](C)CO)[C@H]1[C@@H](O)C(O)C2[C@@H]3C[C@@H](O)C4(O)C[C@@H](O)CC[C@]4(C)C3CC[C@@]21C (some centres undefined)" answer_label=inactive
compound="CC(CO)CCC(O)C(C)(O)C1CCC2(O)C3=CC(=O)C4CC(O)C(O)CC4(C)C3CCC12C (centres undefined)" answer_label=inactive

Give the logged outcome of this assay for the following compound: c1ccc(-c2nc(-c3ccccc3SSc3ccccc3-c3nc(-c4ccccc4)nn3-c3ccccc3)n(-c3ccccc3)n2)cc1
inactive

And then CC(C)(C)OC(=O)[C@H]1CCC(=S)N1Cc1ccccc1 , what is it?
inactive

CC(=N\N)/C(C)=N/N=C(C)/C(C)=N/N=C(C)/C(C)=N/N=C(C)/C(C)=N/N , same question.
inactive

Consider next the compound COC1CCCCN1C(=O)c1ccccc1 (centres undefined) in the same way.
inactive

Next record, please: CC(=O)OCC1OC(n2cc(F)c(=O)[nH]c2=O)C(N)C(OC(C)=O)C1OC(C)=O (centres undefined)
inactive

----------
System: NCI-H23
Test: NCI tumour cell line growth inhibition, 48 h
Active and inactive are the calls of the source. Rule as the data show it: active = GI50 up to about 1.1 µM and inactive = higher.
Consider the following molecules and their measured GI50 readings.

Below, each entry is followed by its recorded GI50 result.
molecule=COC(=O)C1(Cc2ccc3c(c2)CCC3)Cc2cc3c(cc2C1)CCC3 readout_kind=GI50 obs_value="27.3 µM (inactive)"
molecule=CCN(CC)CCSc1nc2c(c(=N)n1-c1ccccc1)c(=S)n(-c1ccccc1)c(=S)n2-c1ccccc1 readout_kind=GI50 obs_value="3.69 µM (inactive)"
molecule=O=C1Nc2nccnc2C(=O)N2CCC[C@@H]12 readout_kind=GI50 obs_value="> 100 µM (inactive)"

Here is the next item to consider.
Fill in the recorded GI50 for this molecule, with NCI-H23 as test system: O=c1[nH]nc(Cc2ccc(Cl)cc2)n1/N=C\CC/C=N\n1c(Cc2ccc(Cl)cc2)n[nH]c1=O
32.3 µM (inactive)

----------
Tested on: SF-295
Assay: NCI tumour cell line growth inhibition, 48 h
Active and inactive are the calls of the source. Cut-off read from the data, not from the text of the source: active = GI50 up to about 1.1 µM and inactive = higher.
Readout Kind: GI50

For orientation, consider the following solved cases.
compound=COc1ccc(/C=C/c2cc(=O)cc(/C=C/c3ccc(OC)c(O)c3)o2)cc1O obs_value="3.52 µM (inactive)"
compound=Cc1cc(C)nc(NS(=O)(=O)c2ccc(Nc3c4ccccc4nc4c(C(=O)Nc5ccc(S(N)(=O)=O)cc5)cccc34)cc2)n1 obs_value="> 100 µM (inactive)"
compound="C[C@]12CC/C(=N\\OCCN3CCCCC3)C=C1CCC1C2CC[C@@]2(C)C1CC[C@]2(C)O (stereo not given in full)" obs_value="3.5 µM (inactive)"
compound=Cc1c(C2=C(Br)C(=O)N(C)C2=O)c(=O)n(C)c(=O)n1C obs_value="> 100 µM (inactive)"

Proceeding to the next compound to report its GI50.
Find GI50 (SF-295) for the entry CN1CCC(O)(C(C)(C)C)CC1
> 100 µM (inactive)
